# Test system: 475296-252-R-J1-PDC spheroid viability
# experiment: Anticancer human tumor 475296-252-R-J1-PDC patient-derived rectal carcinoma cell line growth inhibition [PI3K]
# run_conditions: second compound 0.0316 µM; first compound 0.1 µM; stronger effect = lower value; spheroids with HUVEC and MSC
Provide the reported viability, T/C of each item.
Numbers only, in %.

CC(C)NCC(C(=O)N1CCN(c2ncnc3c2C(C)CC3O)CC1)c1ccc(Cl)cc1 (centres undefined) + CC(Nc1ncnc2nc[nH]c12)c1cc2cccc(Cl)c2c(=O)n1-c1ccccc1: 104

Provide reported viability, T/C for each item, in the same order as listed.
1. CCCS(=O)(=O)Nc1ccc(F)c(C(=O)c2c[nH]c3ncc(-c4ccc(Cl)cc4)cc23)c1F + Cc1nc(NC(=O)N2CCCC2C(N)=O)sc1-c1ccnc(C(C)(C)C(F)(F)F)c1
2. CC1(C)CCC(CN2CCN(c3ccc(C(=O)NS(=O)(=O)c4ccc(NCC5CCOCC5)c([N+](=O)[O-])c4)c(Oc4cnc5[nH]ccc5c4)c3)CC2)=C(c2ccc(Cl)cc2)C1 + COc1c(OCCCN2CCOCC2)ccc2c3n(c(=NC(=O)c4cnc(N)nc4)nc12)CCN3
3. CCN1CCN(Cc2ccc(Nc3ncc(F)c(-c4cc(F)c5nc(C)n(C(C)C)c5c4)n3)nc2)CC1 + COc1c(OCCCN2CCOCC2)ccc2c3n(c(=NC(=O)c4cnc(N)nc4)nc12)CCN3

[95.5, 85.8, 95.1]

----------
# System: 475296-252-R-J1-PDC spheroid viability
# experiment: Anticancer human tumor 475296-252-R-J1-PDC cell line growth inhibition [PI3K];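 also: spheroids exposed to agents for seven days before readout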
# run_conditions: second compound 0.316 µM; first compound 0.316 µM; stronger effect = lower value; spheroids with HUVEC and MSC
# if measured viability, T/C < 70%: Met  # else: Not met

Here's what some known entries look like.
C#Cc1c(F)ccc2cc(O)cc(-c3ncc4c(N5CC6CCC(C5)N6)nc(OCC56CCCN5CC(F)C6)nc4c3F)c12 (stereo unspecified) + Cc1nc(NC(=O)N2CCCC2C(N)=O)sc1-c1ccnc(C(C)(C)C(F)(F)F)c1: Not met
CC(Cn1ccc(-c2ccc(C#N)c(Cl)c2)n1)NC(=O)c1cc(C(C)O)[nH]n1 (stereo unspecified) + CC(Nc1ccc2c(c1)OCCn1cc(N3C(=O)OCC3C(F)F)nc1-2)C(N)=O: Not met
CC(Cn1ccc(-c2ccc(C#N)c(Cl)c2)n1)NC(=O)c1cc(C(C)O)[nH]n1 (stereo unspecified) + COc1c(OCCCN2CCOCC2)ccc2c3n(c(=NC(=O)c4cnc(N)nc4)nc12)CCN3: Not met
Cn1nccc1Nc1nccc(-c2ccn(C(CO)c3ccc(Cl)c(F)c3)c(=O)c2)n1 (stereo unspecified) + COc1c(OCCCN2CCOCC2)ccc2c3n(c(=NC(=O)c4cnc(N)nc4)nc12)CCN3: Met

Shift focus to the following entry.
Quick check: does C#Cc1c(F)ccc2cc(O)cc(-c3ncc4c(N5CC6CCC(C5)N6)nc(OCC56CCCN5CC(F)C6)nc4c3F)c12 (stereo unspecified) + COc1c(OCCCN2CCOCC2)ccc2c3n(c(=NC(=O)c4cnc(N)nc4)nc12)CCN3 have viability, T/C under 70%?
Met

----------
# Test system: 475296-252-R-J1-PDC spheroid viability
# experiment: Anticancer human tumor 475296-252-R-J1-PDC cell line growth inhibition [PI3K];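 also: spheroids exposed to agents for seven days before readout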
# run_conditions: second compound 10 µM; first compound 0.316 µM; stronger effect = lower value; spheroids with HUVEC and MSC
For each of the molecules below, state its viability, T/C.

C#Cc1c(F)ccc2cc(O)cc(-c3ncc4c(N5CC6CCC(C5)N6)nc(OCC56CCCN5CC(F)C6)nc4c3F)c12 (stereo unspecified) + CC(Nc1ncnc2nc[nH]c12)c1cc2cccc(Cl)c2c(=O)n1-c1ccccc1: 68.4%
CC1(C)CCC(Nc2ncc(C(F)(F)F)c(-c3c[nH]c4c(P(C)(C)=O)c(C#N)ccc34)n2)CN1 (stereo unspecified) + CC(Nc1ncnc2nc[nH]c12)c1cc2cccc(Cl)c2c(=O)n1-c1ccccc1: 102%
C[C@@H](NC(=O)c1ncnc(N)c1Cl)c1ncc(C(=O)Nc2cc(C(F)(F)F)c(Cl)cn2)s1 + Cc1nc(NC(=O)N2CCCC2C(N)=O)sc1-c1ccnc(C(C)(C)C(F)(F)F)c1: 79.5%

Give measured viability, T/C for every item shown.
1. C[C@@H](NC(=O)c1ncnc(N)c1Cl)c1ncc(C(=O)Nc2cc(C(F)(F)F)c(Cl)cn2)s1 + CC(Nc1ncnc2nc[nH]c12)c1cc2cccc(Cl)c2c(=O)n1-c1ccccc1
2. CCCS(=O)(=O)Nc1ccc(F)c(C(=O)c2c[nH]c3ncc(-c4ccc(Cl)cc4)cc23)c1F + Cc1nc(NC(=O)N2CCCC2C(N)=O)sc1-c1ccnc(C(C)(C)C(F)(F)F)c1
3. Cn1nccc1Nc1nccc(-c2ccn(C(CO)c3ccc(Cl)c(F)c3)c(=O)c2)n1 (stereo unspecified) + CC(Nc1ncnc2nc[nH]c12)c1cc2cccc(Cl)c2c(=O)n1-c1ccccc1
4. Cn1ncc(Cl)c1-c1cc(C(=O)NC(CN)Cc2cccc(F)c2)sc1Cl (stereo unspecified) + CC(Nc1ncnc2nc[nH]c12)c1cc2cccc(Cl)c2c(=O)n1-c1ccccc1

["93.5%", "82.1%", "91.2%", "60.5%"]

Look at each molecule and report its viability, T/C.
1. CC(Cn1ccc(-c2ccc(C#N)c(Cl)c2)n1)NC(=O)c1cc(C(C)O)[nH]n1 (stereo unspecified) + Cc1nc(NC(=O)N2CCCC2C(N)=O)sc1-c1ccnc(C(C)(C)C(F)(F)F)c1
2. CC(Cn1ccc(-c2ccc(C#N)c(Cl)c2)n1)NC(=O)c1cc(C(C)O)[nH]n1 (stereo unspecified) + CC(Nc1ncnc2nc[nH]c12)c1cc2cccc(Cl)c2c(=O)n1-c1ccccc1

1. 97%
2. 104%

Please report viability, T/C for every entry that follows.
1. CCN1CCN(Cc2ccc(Nc3ncc(F)c(-c4cc(F)c5nc(C)n(C(C)C)c5c4)n3)nc2)CC1 + CC(Nc1ncnc2nc[nH]c12)c1cc2cccc(Cl)c2c(=O)n1-c1ccccc1
2. CC1(C)CCC(Nc2ncc(C(F)(F)F)c(-c3c[nH]c4c(P(C)(C)=O)c(C#N)ccc34)n2)CN1 (stereo unspecified) + Cc1nc(NC(=O)N2CCCC2C(N)=O)sc1-c1ccnc(C(C)(C)C(F)(F)F)c1
3. CC1(C)CCC(CN2CCN(c3ccc(C(=O)NS(=O)(=O)c4ccc(NCC5CCOCC5)c([N+](=O)[O-])c4)c(Oc4cnc5[nH]ccc5c4)c3)CC2)=C(c2ccc(Cl)cc2)C1 + Cc1nc(NC(=O)N2CCCC2C(N)=O)sc1-c1ccnc(C(C)(C)C(F)(F)F)c1
4. Cn1nccc1Nc1nccc(-c2ccn(C(CO)c3ccc(Cl)c(F)c3)c(=O)c2)n1 (stereo unspecified) + Cc1nc(NC(=O)N2CCCC2C(N)=O)sc1-c1ccnc(C(C)(C)C(F)(F)F)c1

["96.9%", "94%", "89.4%", "83.7%"]

Give viability, T/C for each listed item.
1. CC(C)NCC(C(=O)N1CCN(c2ncnc3c2C(C)CC3O)CC1)c1ccc(Cl)cc1 (stereo unspecified) + CC(Nc1ncnc2nc[nH]c12)c1cc2cccc(Cl)c2c(=O)n1-c1ccccc1
2. CCCS(=O)(=O)Nc1ccc(F)c(C(=O)c2c[nH]c3ncc(-c4ccc(Cl)cc4)cc23)c1F + CC(Nc1ncnc2nc[nH]c12)c1cc2cccc(Cl)c2c(=O)n1-c1ccccc1

1: 94.7%; 2: 79.8%

// each molecule listed below needs its viability, T/C
1. CC1(C)CCC(CN2CCN(c3ccc(C(=O)NS(=O)(=O)c4ccc(NCC5CCOCC5)c([N+](=O)[O-])c4)c(Oc4cnc5[nH]ccc5c4)c3)CC2)=C(c2ccc(Cl)cc2)C1 + CC(Nc1ncnc2nc[nH]c12)c1cc2cccc(Cl)c2c(=O)n1-c1ccccc1
2. CNC(=O)c1ccc(N2C(=S)N(c3ccc(C#N)c(C(F)(F)F)c3)C(=O)C2(C)C)cc1F + CC(Nc1ncnc2nc[nH]c12)c1cc2cccc(Cl)c2c(=O)n1-c1ccccc1
3. C=CC(=O)N1CCN(c2nc(=O)n(-c3c(C)ccnc3C(C)C)c3nc(-c4c(O)cccc4F)c(F)cc23)C(C)C1 (stereo unspecified) + Cc1nc(NC(=O)N2CCCC2C(N)=O)sc1-c1ccnc(C(C)(C)C(F)(F)F)c1
4. CC(C)NCC(C(=O)N1CCN(c2ncnc3c2C(C)CC3O)CC1)c1ccc(Cl)cc1 (stereo unspecified) + Cc1nc(NC(=O)N2CCCC2C(N)=O)sc1-c1ccnc(C(C)(C)C(F)(F)F)c1
5. CNC(=O)c1ccc(N2C(=S)N(c3ccc(C#N)c(C(F)(F)F)c3)C(=O)C2(C)C)cc1F + Cc1nc(NC(=O)N2CCCC2C(N)=O)sc1-c1ccnc(C(C)(C)C(F)(F)F)c1
6. Cn1ncc(Cl)c1-c1cc(C(=O)NC(CN)Cc2cccc(F)c2)sc1Cl (stereo unspecified) + Cc1nc(NC(=O)N2CCCC2C(N)=O)sc1-c1ccnc(C(C)(C)C(F)(F)F)c1

92%
93%
95.5%
89.3%
104%
81.7%
